experiment: soluble on expression in E. coli; label from the status in PepcDB or PDB records
MEASURE_NAME: soluble on expression in E. coli

# RESIDUE_SEQUENCE, REPORTED
measured = [
    ("MTIKTGNIRTNSLAEIYRNSPVFQNLRNPDKYKGKCGVCEFRYVCGGSRSRAYAMTGGLYGKMAGDPLEHHHHHH", "not soluble"),
    ("MSLKQPAVFFDKNVSTIEENNSLLDGQTDVPVLDPHDLLVEVQAVSVNPVDTKLRQTGVASKIKILGYDAFGIVKNTGKDVTRFHAGDRVYYAGTTQRPGSNEKFQAVDERLVGRAPEKLNKSEIAAMPLTSITAYEILVDQLGLRFQNHAADGKNMLVINGAGGVGSVLLQMAAYLGINLSVTAHSSESIEWLKKYSVDKIYDYENIDETLADQKFDYIVFLYDPALYWDIAIKHIKPYGQLVSIVGTNKPLNMGPLKNIAVQFKWEYMFAKSDFNHNILSQGQALDKIAILLDAGILKTTLNKTFDLINAENLRQAYKLVESGRMQGKVVLNGPFDKALKEGHHHHHH", "soluble"),
    ("GHMNVAKREFIRGMMAHYRASLPPPEHSVVIHELQKRVLDIGMLAVNKAHVELFGSHVSGFCTPHSDADISLTYRNFSPWLQGMERVDEQNNKRMTRFGKEASAMGMEDVRYIRARIPVVQFTDGVTGIHCDVSIGNIGGVENSKILCAIRQVFPDFYGAYIHLVKAWGKAREVIAPERSTFNSFTVTTMALMVLQELGLLPVFSKPTGEFGELTVADAEMLLQEFKLPPIYDSLHDDDEKLGEAVFFCLQRFAEYYAKYDFSAGTVSLIHPRRHRTVYERVVRRHLELLGSRKRLEWEKHIAEHKEDGPLDENDFSASMQNETTQRPSNSPYVVEDFVNYVNCGRRVQASRVRHIQQEFNRLREMLIDKESELKFDEVFRESDTVP", "soluble"),
    ("GMWWYSSIKYSADKVLLDTTRMYYYFINRTPRMEIGRMIAVLSGSFEFSKQYNKEIQERETDDYEVPRLMKQIAGVNDKGKEQPLSQPYALKSRVLLHAYLSRLPLESQNDALEEDQSYIITRILRFVEEMVNCSQNLMNYSQHTKISIETFDNLLKLQPMFVQALWQKNSPLLQLPHITDYNLQHLRKKRVFSCHDLAVMDAETRRSVLRSLSNEEYRDVMVVLSMMPRLQIETKTVVEGEDDKHELTAGCVVTLKVTMRRSRLIDPQEAGLADQYKKYAEDGGDDELEASEAPEEAAATVEEEEVKKRKPWEKNKPKQKKKKAQGQGQKKFVKKNAPASPDTEKALKEE", "not soluble"),
    ("MDPFGKYIKAVSARAADKEILKKAQDGGIVSAAYIYGLESGLLDGVIIADKEDGFAAAPKVATTREEILNAAGTKYTVCPNLSVVKSAVREYGCDKLGFVGTPCQVRSIRKAIKYPVGYRHVPDKIALIMGIFCMENFPYNGMKAIVEEHCGIKMDDVVKTDIGKGKFWVYSKWGDVKTIPLKDTHPYEQGSCHVCMDYTAELADISTGSVGSPDGWSTIFVRTAKGEEYLNKMVEAGALETKEIDAVKPGLGLVEKLALTKKEKNGKEVEHRKEIGLPVPYLEHHHHHH", "not soluble"),
    ("MANRVTMMMKIFENQTAMLHKALNDQHTIESKYKQMETNYENLILKKNLLEGEIQRLRDPERVKSATKLERTKKPGKSEKKKDKDLERNISPNREFKSFEELHQIQETERNKTQLDNVLPQKSEMFKEERTKTKRGQSQNKSKVKIEDSKDSLPKKSDTQLGEQRKDQISSDQSKRAK", "soluble"),
]
